Exercise: for every item that follows, state its recorded IC50.
TESTED ON: [35S]-TBPS binding, rat brain cortical membranes (GABAA receptor)
TEST SUMMARY: Steroid inhibition of [35S]-TBPS binding
REPORTED CONDITIONS: 3 nM [35S]-TBPS, in the presence of 5 mM GABA, 90 min at room temp

*Q* What reported IC50 corresponds to CCOC[C@@]1(O)CC[C@H]2[C@H](CC[C@@H]3[C@@H]2CC[C@]2(C)[C@@H](C(=O)Nc4nccc(C#N)n4)CC[C@@H]32)C1 on [35S]-TBPS binding, rat brain cortical membranes (GABAA receptor)?
*A* 100 to 1000 nM

*Q* What reported IC50 corresponds to CCC[C@@]1(O)CC[C@H]2[C@H](CC[C@@H]3[C@@H]2CC[C@]2(C)[C@@H](C(=O)Nc4nccc(C#N)n4)CC[C@@H]32)C1 on [35S]-TBPS binding, rat brain cortical membranes (GABAA receptor)?
*A* < 100 nM

*Q* What reported IC50 corresponds to COC[C@@]1(O)CC[C@H]2[C@H](CC[C@@H]3[C@@H]2CC[C@]2(C)[C@@H](C(=O)Nc4cncc(C#N)n4)CC[C@@H]32)C1 on [35S]-TBPS binding, rat brain cortical membranes (GABAA receptor)?
*A* < 100 nM
